# SYSTEM_NAME: His-tagged KRAS G12D protein (Homo sapiens, UniProt P01116, G12D)
# Sequence (P01116 1-188 isoform P01116-2 G12D): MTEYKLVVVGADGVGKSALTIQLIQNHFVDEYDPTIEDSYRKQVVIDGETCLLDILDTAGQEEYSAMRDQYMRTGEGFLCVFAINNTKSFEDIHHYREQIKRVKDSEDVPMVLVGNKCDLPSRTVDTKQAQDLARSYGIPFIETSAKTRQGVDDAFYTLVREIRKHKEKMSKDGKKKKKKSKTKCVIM
# EXPERIMENTAL_PROTOCOL: biochemical
pIC50: −log10 of the molar value.
Quick rule for you: pIC50 at 8 or higher means label 1, lower means label 0.

{"SMILES_INPUT": "CCc1c(F)ccc2cc(O)cc(-c3ncc4c(N5CCCC[C@H](O)C5)nc(OC[C@@]56CCCN5C[C@H](F)C6)nc4c3F)c12", "SYSTEM_NAME": "His-tagged KRAS G12D protein (Homo sapiens, UniProt P01116, G12D)", "ANSWER_LABEL": "label 1"}
{"SMILES_INPUT": "CCc1c(F)ccc2cc(O)cc(-c3ncc4c(N5C[C@@H]6COC[C@@H]65)nc(OC[C@@]56CCCN5C[C@H](F)C6)nc4c3F)c12", "SYSTEM_NAME": "His-tagged KRAS G12D protein (Homo sapiens, UniProt P01116, G12D)", "ANSWER_LABEL": "label 0"}

---

# SYSTEM_NAME: His-tagged KRAS G12D protein (Homo sapiens, UniProt P01116, G12D)
# EXPERIMENTAL_PROTOCOL: biochemical

{"COMPOUND": "CCc1c(F)ccc2cc(O)cc(-c3ncc4c(N5CC[C@H](O)[C@H](O)C5)nc(OC[C@@]56CCCN5C[C@H](F)C6)nc4c3F)c12 (relative stereo) [Example 100]", "IC50": "0.009 µM"}
{"COMPOUND": "CCc1c(F)ccc2cc(O)cc(-c3ncc4c(N5CC[C@H](O)[C@@H](O)C5)nc(OC[C@@]56CCCN5C[C@H](F)C6)nc4c3F)c12 (relative stereo) [Example 101]", "IC50": "0.02 µM"}
{"COMPOUND": "CCc1c(F)ccc2cc(O)cc(-c3ncc4c(N5CCC[C@H](S(N)(=O)=O)C5)nc(OC[C@@]56CCCN5C[C@H](F)C6)nc4c3F)c12 [Example 7]", "IC50": "0.037 µM"}

---

# Test system: Phosphorylation of ERK1/2 in AsPC-1 cells
# EXPERIMENTAL_PROTOCOL: Phospho-ERK1/2 MSD Assay
# Assay type: cell-based
# COND: read-out: 2 h p-ERK (AsPC-1 cells), IC50; AsPC-1 cells, 2 h compound treatment
pIC50: −log10 of the molar value.
Readings of pIC50 for the listed molecules

{"MOLECULE": "CCc1c(F)ccc2cc(O)cc(-c3ncc4c(N5CC(C)CC(C(N)=O)C5)nc(OC[C@@]56CCCN5C[C@H](F)C6)nc4c3F)c12 (single isomer, unassigned) [Example 163]", "SYSTEM_NAME": "Phosphorylation of ERK1/2 in AsPC-1 cells", "pIC50": 5.56}
{"MOLECULE": "CCc1c(F)ccc2cc(O)cc(-c3ncc4c(N5CCCC(O)(CF)C5)nc(OC[C@@]56CCCN5C[C@H](F)C6)nc4c3F)c12 (single isomer, unassigned) [Example 171]", "SYSTEM_NAME": "Phosphorylation of ERK1/2 in AsPC-1 cells", "pIC50": 8.70}
{"MOLECULE": "CCc1c(F)ccc2cc(O)cc(-c3ncc4c(N5CC6CC(C#N)C(C6)C5)nc(OC[C@@]56CCCN5C[C@H](F)C6)nc4c3F)c12 (single isomer, unassigned) [Example 145]", "SYSTEM_NAME": "Phosphorylation of ERK1/2 in AsPC-1 cells", "pIC50": 6.23}
{"MOLECULE": "CCc1c(F)ccc2cc(O)cc(-c3ncc4c(N5CCCC(O)(CF)C5)nc(OC[C@@]56CCCN5C[C@H](F)C6)nc4c3F)c12 (single isomer, unassigned) [Example 172]", "SYSTEM_NAME": "Phosphorylation of ERK1/2 in AsPC-1 cells", "pIC50": 7.07}
{"MOLECULE": "C#Cc1c(F)ccc2cc(O)cc(-c3ncc4c(N5CC6CC(O)C(C6)C5)nc(OC[C@@]56CCCN5C[C@H](F)C6)nc4c3F)c12 (single isomer, unassigned) [Example 27]", "SYSTEM_NAME": "Phosphorylation of ERK1/2 in AsPC-1 cells", "pIC50": 5.99}
{"MOLECULE": "CCc1c(F)ccc2cc(O)cc(-c3ncc4c(N5CC6CC(O)C(C6)C5)nc(OC[C@@]56CCCN5C[C@H](F)C6)nc4c3F)c12 (single isomer, unassigned) [Example 23]", "SYSTEM_NAME": "Phosphorylation of ERK1/2 in AsPC-1 cells", "pIC50": 5.62}
{"MOLECULE": "CCc1c(F)ccc2cc(O)cc(-c3ncc4c(N5CCCC(O)(C(F)F)C5)nc(OC[C@@]56CCCN5C[C@H](F)C6)nc4c3F)c12 (single isomer, unassigned) [Example 39]", "SYSTEM_NAME": "Phosphorylation of ERK1/2 in AsPC-1 cells", "pIC50": 7.89}
{"MOLECULE": "CCc1c(F)ccc2cc(O)cc(-c3ncc4c(N5CC6CC(C#N)C(C6)C5)nc(OC[C@@]56CCCN5C[C@H](F)C6)nc4c3F)c12 (single isomer, unassigned) [Example 146]", "SYSTEM_NAME": "Phosphorylation of ERK1/2 in AsPC-1 cells", "pIC50": 6.63}
{"MOLECULE": "CCc1c(F)ccc2cc(O)cc(-c3ncc4c(N5CCCC(O)(C(F)F)C5)nc(OC[C@@]56CCCN5C[C@H](F)C6)nc4c3F)c12 (single isomer, unassigned) [Example 40]", "SYSTEM_NAME": "Phosphorylation of ERK1/2 in AsPC-1 cells", "pIC50": 6.24}
{"MOLECULE": "CCc1c(F)ccc2cc(O)cc(-c3ncc4c(N5CCCCC(C)(O)C5)nc(OC[C@@]56CCCN5C[C@H](F)C6)nc4c3F)c12 (single isomer, unassigned) [Example 136]", "SYSTEM_NAME": "Phosphorylation of ERK1/2 in AsPC-1 cells", "pIC50": 6.21}

---

# SYSTEM_NAME: His-tagged KRAS G12D protein (Homo sapiens, UniProt P01116, G12D)
# EXPERIMENTAL_PROTOCOL: biochemical
pIC50: −log10 of the molar value.

{"MOLECULE": "Oc1cc(-c2ncc3c(N4CC5CC(O)C(C5)C4)nc(OC[C@@]45CCCN4C[C@H](F)C5)nc3c2F)c2c(F)c(F)ccc2c1 (stereo partly drawn) [Example 18]", "SYSTEM_NAME": "His-tagged KRAS G12D protein (Homo sapiens, UniProt P01116, G12D)", "pIC50": 8.52}
{"MOLECULE": "CCc1c(F)ccc2cc(O)cc(-c3ncc4c(N5CCCCC(C)(O)C5)nc(OC[C@@]56CCCN5C[C@H](F)C6)nc4c3F)c12 (single isomer, unassigned) [Example 137]", "SYSTEM_NAME": "His-tagged KRAS G12D protein (Homo sapiens, UniProt P01116, G12D)", "pIC50": 8.70}
{"MOLECULE": "CCc1c(F)ccc2cc(O)cc(-c3ncc4c(N5CC(C(N)=O)CC(C)(C)C5)nc(OC[C@@]56CCCN5C[C@H](F)C6)nc4c3F)c12 (stereo partly drawn) [Example 43]", "SYSTEM_NAME": "His-tagged KRAS G12D protein (Homo sapiens, UniProt P01116, G12D)", "pIC50": 8.40}
{"MOLECULE": "CCc1c(F)ccc2cc(O)cc(-c3ncc4c(N5CCCC(c6cnco6)C5)nc(OC[C@@]56CCCN5C[C@H](F)C6)nc4c3F)c12 (stereo partly drawn) [Example 108]", "SYSTEM_NAME": "His-tagged KRAS G12D protein (Homo sapiens, UniProt P01116, G12D)", "pIC50": 7.96}
{"MOLECULE": "CCc1c(F)ccc2cc(O)cc(-c3ncc4c(N5CC=CC(O)C5)nc(OC[C@@]56CCCN5C[C@H](F)C6)nc4c3F)c12 (stereo partly drawn) [Example 109]", "SYSTEM_NAME": "His-tagged KRAS G12D protein (Homo sapiens, UniProt P01116, G12D)", "pIC50": 7.92}
{"MOLECULE": "CCc1c(F)ccc2cc(O)cc(-c3ncc4c(N5CCC[C@H]5C(N)=O)nc(OC[C@@]56CCCN5C[C@H](F)C6)nc4c3F)c12 [Example 4]", "SYSTEM_NAME": "His-tagged KRAS G12D protein (Homo sapiens, UniProt P01116, G12D)", "pIC50": 7.68}
{"MOLECULE": "C#Cc1c(F)ccc2cc(O)cc(-c3ncc4c(N5CCCC(C)(O)C5)nc(OCC56CCCN5CC(F)C6)nc4c3F)c12 (stereo not drawn) [Example 52]", "SYSTEM_NAME": "His-tagged KRAS G12D protein (Homo sapiens, UniProt P01116, G12D)", "pIC50": 9.00}
{"MOLECULE": "CCc1c(F)ccc2cc(O)cc(-c3ncc4c(N5CCCC[C@@H](NC(=O)C(F)F)C5)nc(OC[C@@]56CCCN5C[C@H](F)C6)nc4c3F)c12 [Example 132]", "SYSTEM_NAME": "His-tagged KRAS G12D protein (Homo sapiens, UniProt P01116, G12D)", "pIC50": 9.00}
{"MOLECULE": "CCc1c(F)ccc2cc(O)cc(-c3ncc4c(N5CC(O)CC(F)(F)C5)nc(OC[C@@]56CCCN5C[C@H](F)C6)nc4c3F)c12 (stereo partly drawn) [Example 118]", "SYSTEM_NAME": "His-tagged KRAS G12D protein (Homo sapiens, UniProt P01116, G12D)", "pIC50": 8.52}
{"MOLECULE": "CCc1c(F)ccc2cc(O)cc(-c3ncc4c(N5CCC6OCCC6C5)nc(OC[C@@]56CCCN5C[C@H](F)C6)nc4c3F)c12 (relative stereo) [Example 62]", "SYSTEM_NAME": "His-tagged KRAS G12D protein (Homo sapiens, UniProt P01116, G12D)", "pIC50": 7.40}
{"MOLECULE": "CCc1c(F)ccc2cc(O)cc(-c3ncc4c(N5CCC5C(N)=O)nc(OC[C@@]56CCCN5C[C@H](F)C6)nc4c3F)c12 (stereo partly drawn) [Example 5]", "SYSTEM_NAME": "His-tagged KRAS G12D protein (Homo sapiens, UniProt P01116, G12D)", "pIC50": 7.72}
{"MOLECULE": "CCc1c(F)ccc2cc(O)cc(-c3ncc4c(N5CCCC(C#N)CC5)nc(OC[C@@]56CCCN5C[C@H](F)C6)nc4c3F)c12 (single isomer, unassigned) [Example 54]", "SYSTEM_NAME": "His-tagged KRAS G12D protein (Homo sapiens, UniProt P01116, G12D)", "pIC50": 8.52}
